// cross-source set; read-out = pIC50; system = panel of kinases (Homo sapiens)
Sequence (P51813 whole entry): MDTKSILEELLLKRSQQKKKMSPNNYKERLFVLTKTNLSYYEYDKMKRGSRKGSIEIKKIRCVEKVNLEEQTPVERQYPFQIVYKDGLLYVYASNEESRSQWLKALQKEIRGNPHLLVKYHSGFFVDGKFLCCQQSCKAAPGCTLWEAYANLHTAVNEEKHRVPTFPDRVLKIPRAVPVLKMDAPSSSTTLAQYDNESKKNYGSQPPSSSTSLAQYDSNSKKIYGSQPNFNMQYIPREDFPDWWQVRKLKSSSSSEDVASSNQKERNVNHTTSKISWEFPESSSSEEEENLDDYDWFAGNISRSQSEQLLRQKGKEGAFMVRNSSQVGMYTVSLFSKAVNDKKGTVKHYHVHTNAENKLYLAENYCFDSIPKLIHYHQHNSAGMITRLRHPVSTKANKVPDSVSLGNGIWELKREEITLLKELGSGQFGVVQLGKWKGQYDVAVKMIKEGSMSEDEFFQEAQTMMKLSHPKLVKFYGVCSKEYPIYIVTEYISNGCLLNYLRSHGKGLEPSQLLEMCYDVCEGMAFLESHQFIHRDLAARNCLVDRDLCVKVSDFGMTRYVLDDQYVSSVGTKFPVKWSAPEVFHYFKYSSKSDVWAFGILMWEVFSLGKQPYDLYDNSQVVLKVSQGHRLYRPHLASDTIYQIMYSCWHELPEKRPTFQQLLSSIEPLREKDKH
pIC50: −log10 of the molar value.
Value type: pIC50

Compound	Assayed system	pIC50
C[C@H]1CC[C@@H](Nc2n[nH]c3nccc(-c4ccc(CNC(=O)c5noc(C(C)(C)C)n5)c(F)c4)c23)CN1S(=O)(=O)C1CC1	panel of kinases (Homo sapiens)	5.95
C=CC(=O)N1CC[C@@H](Nc2n[nH]c3nccc(-c4cccc(-n5ccc6cc(C7CC7)cc(F)c6c5=O)c4COC(C)=O)c23)C1	panel of kinases (Homo sapiens)	5.39
O=C(NCc1ccc(-c2ccnc3[nH]nc(N[C@@H]4CCNC4)c23)cc1F)c1ccc2scnc2c1	panel of kinases (Homo sapiens)	5.82
CC#CC(=O)N1CCC[C@H]1c1nc(-c2ccc(C(=O)Nc3cc(C(F)(F)F)ccn3)c(OC)c2)c2c(N)nccn12	panel of kinases (Homo sapiens)	7.85

1 = C=CC(=O)Nc1cc(-n2c(=O)ccc3cnc4ccc(-c5ccc(NC(=O)NC)cc5)cc4c32)ccc1C
2 = CC(C)(C)c1noc(C(=O)NCc2ccc(-c3ccnc4[nH]nc(N5CCC(N)C5)c34)cc2F)n1 (centres unmarked)
3 = CC#CC(=O)N1CC[C@@H](Nc2n[nH]c3nccc(-c4ccc(CNC(=O)c5ccc(C(F)(F)F)cc5)c(F)c4)c23)C1
4 = CN(C)C(=O)N1CC[C@@H](Nc2n[nH]c3nccc(-c4ccc(CNC(=O)c5cnn(C(C)(C)C)c5)c(F)c4)c23)C1
Query block: Reorder the items by pIC50, least to greatest. Labels, ranked as asked.
Result block: 4, 2, 3, 1
(4: 5.19, 2: 5.91, 3: 7.18, 1: 7.39)

1 = C[C@@H](NC(=O)c1nc(C(C)(C)C)no1)c1ccc(-c2ccnc3[nH]nc(NC4CCOC4)c23)cc1 (some centres unmarked)
2 = CC(C)c1nc(C(=O)NCc2ccc(-c3ccnc4[nH]nc(N5CC[C@@H](N)C5)c34)cc2F)no1
Query block: Would you let me know which has the greater pIC50 value, 1 or 2 ? Selection: enter the item's label.
Result block: 2
